src = ChEMBL document CHEMBL1152583

log10(IC50), Acetylcholinesterase (Torpedo californica, UniProt P04058): measured values
Measurement kind: log10(IC50) (log10 of the value in nM)

>  <Structure>
C/C=C1\[C@H]2C=C(C)C[C@]1(/N=C/c1ccc(O)c(OCC)c1)c1ccc(=O)[nH]c1C2

>  <Obs value>
-0.07

$$$$
>  <Structure>
C/C=C1\[C@H]2C=C(C)C[C@]1(/N=C/c1cc(OC)cc(OC)c1)c1ccc(=O)[nH]c1C2

>  <Obs value>
-1.70

$$$$
>  <Structure>
C/C=C1\[C@H]2C=C(C)C[C@]1(/N=C/c1ccc(OC)cc1OC)c1ccc(=O)[nH]c1C2

>  <Obs value>
-1.35

$$$$
>  <Structure>
C/C=C1\[C@H]2C=C(C)C[C@]1(/N=C/c1ccc(N(C)C)cc1)c1ccc(=O)[nH]c1C2

>  <Obs value>
1.37

$$$$
>  <Structure>
C/C=C1\[C@H]2C=C(C)C[C@]1(/N=C/C=C/c1ccccc1)c1ccc(=O)[nH]c1C2

>  <Obs value>
0.26

$$$$
>  <Structure>
C/C=C1\[C@H]2C=C(C)C[C@]1(/N=C/C(=C/c1ccccc1)CCCCC)c1ccc(=O)[nH]c1C2

>  <Obs value>
2.90

$$$$
>  <Structure>
C=CCOc1ccc(/C=N/[C@@]23CC(C)=C[C@@H](Cc4[nH]c(=O)ccc42)/C3=C\C)cc1

>  <Obs value>
1.14

$$$$
>  <Structure>
C/C=C1\[C@H]2C=C(C)C[C@]1(/N=C/c1ccc(C#N)cc1)c1ccc(=O)[nH]c1C2

>  <Obs value>
-1.39

$$$$
>  <Structure>
C/C=C1\[C@H]2C=C(C)C[C@]1(/N=C/c1ccccc1OS(=O)(=O)O)c1ccc(=O)[nH]c1C2

>  <Obs value>
1.26

$$$$
